Molecular target: T1, RBFOX1 RRM RbFoxmut (Fox-RRM*) (Homo sapiens, UniProt Q9NWB1 109-208, R118D;E147R;N151S;E152T)
T1 sequence: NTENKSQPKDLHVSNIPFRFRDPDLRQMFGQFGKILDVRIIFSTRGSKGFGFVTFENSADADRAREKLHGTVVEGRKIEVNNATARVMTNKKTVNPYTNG
Assay: EMSA; HiTS-Eq, 1 nM pool, 10 min; buffer printed only for the single-RNA assays: 10 mM Tris pH 7.5, 150 mM NaCl, 3.4 mM EDTA, 0.001% NP-40, 30 C
Conditions: tags: His6 N-terminal (pET28a); label: 5' 32P
In all, about 16,000 sequences were measured (“ka relative to ugcaugu”: median about 0.096, highest 2% from about 0.35 on). The sample as a whole holds a higher share of the highest values than the screen did.
Endpoint Name: binding signal

QUERY: I would be grateful if you could share the reported binding signal for AGCCAGC (DNA:RNA) RNA: GGGAGACCGGAAUUCAGAUUGUCCAGCCAGCUUAAAUCCCGUCGUAGCCACCA DNA 1: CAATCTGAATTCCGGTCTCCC DNA 2: TGGTGGCTACGACGGGATT .
RESULT: 0.0776 KA relative to UGCAUGU

QUERY: I would be grateful if you could share the reported binding signal for CAGCAUA (DNA:RNA) RNA: GGGAGACCGGAAUUCAGAUUGUCCCAGCAUAUUAAAUCCCGUCGUAGCCACCA DNA 1: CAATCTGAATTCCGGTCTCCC DNA 2: TGGTGGCTACGACGGGATT .
RESULT: 0.137 KA relative to UGCAUGU
